Would you mind telling me the reported pest or weed control at 150 ppm of each entry?
test system: Uromyces phaseoli; assay: whole plant or invertebrate; settings: foliar, read-out: Percent Disease Control, foliar, bean rust
Give bare numbers, in %.

[[record]]
molecule = "O=c1c(Cl)nsnc1Oc1c(Cl)cccc1Cl [Compound 18]"
test_target = "Uromyces phaseoli"
units_of_measure = "%"
readout_value = 100

[[record]]
molecule = "O=c1c(Cl)nsnc1Oc1cccc2ccccc12 [Compound 32]"
test_target = "Uromyces phaseoli"
units_of_measure = "%"
readout_value = 90

[[record]]
molecule = "O=C(OCc1ccccc1)Oc1ccc(Oc2nsnc(Cl)c2=O)cc1 [Compound 38]"
test_target = "Uromyces phaseoli"
units_of_measure = "%"
readout_value = 0


Okay, here is my list. What is pest or weed control at 150 ppm for each of these?
1. Cc1cccc(C)c1Oc1nsnc(Cl)c1=O [Compound 24]
2. Cc1cc(Cl)c(Oc2nsnc(Cl)c2=O)cc1C [Compound 58]
3. Nc1ccc(Oc2nsnc(Cl)c2=O)cc1 [Compound 26]
4. CCCCOc1ccc(Oc2nsnc(Cl)c2=O)cc1 [Compound 6]
5. O=c1c(Cl)nsnc1Oc1ccc(Cl)cc1 [Compound 12]
6. COc1ccc(Oc2nsnc(Cl)c2=O)cc1 [Compound 5]
7. O=c1c(Cl)nsnc1Oc1cccc(C(F)(F)F)c1 [Compound 44]

Reply text:
[100, 100, 0, 0, 100, 100, 100]

Okay, here is my list. What is pest or weed control at 150 ppm for each of these?
1. CC(=O)Nc1ccccc1Oc1nsnc(Cl)c1=O [Compound 43]
2. C[S+]([O-])c1ccc(Oc2nsnc(Cl)c2=O)cc1 (stereo not shown) [Compound 40]
3. O=c1c(Cl)nsnc1Cl [Compound 1, 3,5-dichloro-4H--1,2,6-thiadiazin-4-one]
4. N#Cc1ccc(Oc2nsnc(Cl)c2=O)cc1 [Compound 10]

Reply text:
0
98
0
100

Okay, here is my list. What is pest or weed control at 150 ppm for each of these?
1. CC(=O)c1ccccc1Oc1nsnc(Cl)c1=O [Compound 49]
2. O=c1c(Cl)nsnc1Oc1ccccc1 [Compound 2]
3. COc1ccc(Cl)c(Oc2nsnc(Cl)c2=O)c1 [Compound 51]
4. O=c1c(Cl)nsnc1Oc1ccc(F)cc1 [Compound 11]
5. COc1cc(Oc2nsnc(Cl)c2=O)cc(OC)c1C(C)=O [Compound 61]

Reply text:
1: 100; 2: 100; 3: 0; 4: 0; 5: 100

Okay, here is my list. What is pest or weed control at 150 ppm for each of these?
1. CC(=O)c1ccc(Oc2nsnc(Cl)c2=O)cc1 [Compound 47]
2. Cc1cc(Cl)ccc1Oc1nsnc(Cl)c1=O [Compound 55]

Reply text:
0
100
